- assayProtocol: Stability assay in aqueous humor
- Type: in vitro ADME
- setupConditions: rabbit aqueous humor, 1 μM compound
# half-life at 1 μM per entry

chemicalSmiles	half-life at 1 μM
CN(C)CCOC(=O)c1ccc(Oc2cc(C(=O)Nc3c(Cl)cncc3Cl)ccc2OC(F)F)cc1	1 to 2 h
COC(=O)CNCCCOc1cc(C(=O)Nc2c(Cl)cncc2Cl)ccc1OC(F)F	1 to 2 h
COC(=O)c1ccc(Oc2cc(C(=O)Nc3c(Cl)cncc3Cl)ccc2OC(F)F)cc1	> 2 h
O=C(Nc1c(Cl)cncc1Cl)c1ccc(OC(F)F)c(Oc2ccc(C(=O)OCCO)cc2)c1	> 2 h

----------
- targetOfAssay: recombinant PDE4B1 (Homo sapiens, UniProt Q07343)
- Sequence (Q07343 whole entry): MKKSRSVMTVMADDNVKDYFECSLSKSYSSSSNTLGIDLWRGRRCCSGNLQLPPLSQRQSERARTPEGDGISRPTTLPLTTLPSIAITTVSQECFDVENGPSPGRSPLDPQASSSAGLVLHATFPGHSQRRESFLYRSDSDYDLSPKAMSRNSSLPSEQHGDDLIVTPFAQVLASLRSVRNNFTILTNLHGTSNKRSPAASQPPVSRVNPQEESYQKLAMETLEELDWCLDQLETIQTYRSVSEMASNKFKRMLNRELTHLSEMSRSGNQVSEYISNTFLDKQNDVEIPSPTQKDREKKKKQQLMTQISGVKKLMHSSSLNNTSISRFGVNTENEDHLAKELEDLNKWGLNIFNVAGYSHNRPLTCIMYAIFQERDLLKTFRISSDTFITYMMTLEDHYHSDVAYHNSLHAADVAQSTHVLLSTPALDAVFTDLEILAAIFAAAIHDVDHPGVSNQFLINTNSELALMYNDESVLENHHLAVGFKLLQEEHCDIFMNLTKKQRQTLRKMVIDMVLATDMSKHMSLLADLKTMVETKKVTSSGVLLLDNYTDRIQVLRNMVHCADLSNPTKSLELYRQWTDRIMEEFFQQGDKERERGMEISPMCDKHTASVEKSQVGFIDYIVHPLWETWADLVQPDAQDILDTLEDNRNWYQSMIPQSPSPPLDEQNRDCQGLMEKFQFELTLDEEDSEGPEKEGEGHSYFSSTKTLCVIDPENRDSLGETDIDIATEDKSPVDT
- assayProtocol: PDE4 inhibitory activity screening, PDE4B1 (HTRF, cAMP substrate)
- setupConditions: 40 nM cAMP, 30 minutes, room temperature
pIC50: −log10 of the molar value.
The entries below are paired with their reported pIC50.
readoutLabel: pIC50

compound	assayValue
COC(=O)c1cccc(SCCCOc2cc(C(=O)Nc3c(Cl)cncc3Cl)ccc2OC(F)F)c1	6.30 to 7.00
O=C(CCCCOc1cc(C(=O)Nc2c(Cl)cncc2Cl)ccc1OC(F)F)OCC1CCCO1 (centres unmarked)	> 8.00
O=C(Nc1c(Cl)cncc1Cl)c1ccc(OC(F)F)c(OCCCNC(CCO)C(=O)O)c1 (centres unmarked)	< 6.30
CCCOC(=O)CCCCOc1cc(C(=O)Nc2c(Cl)cncc2Cl)ccc1OC(F)F	7.00 to 8.00
CN(C)CCOC(=O)c1ccc(SCCCOc2cc(C(=O)Nc3c(Cl)cncc3Cl)ccc2OC(F)F)cc1	7.00 to 8.00
O=C(Nc1c(Cl)cncc1Cl)c1ccc(OC(F)F)c(OCCCCSC2CCOC2=O)c1 (centres unmarked)	> 8.00
CN(C)CCOC(=O)c1cccc(SCCCOc2cc(C(=O)Nc3c(Cl)cncc3Cl)ccc2OC(F)F)c1	7.00 to 8.00
O=C(Nc1c(Cl)cncc1Cl)c1ccc(OC(F)F)c(OCCCSc2cccc(C(=O)OCCO)c2)c1	7.00 to 8.00
O=C(CCCCOc1cc(C(=O)Nc2c(Cl)cncc2Cl)ccc1OC(F)F)Oc1ccccc1F	7.00 to 8.00
O=C(Nc1c(Cl)cncc1Cl)c1ccc(OC(F)F)c(OCCCNC2CCOC2=O)c1 (centres unmarked)	> 8.00
CN(C)CCOC(=O)c1cccc(Oc2cc(C(=O)Nc3c(Cl)cncc3Cl)ccc2OC(F)F)c1	> 8.00
CN(C)CCOC(=O)CCCCOc1cc(C(=O)Nc2c(Cl)cncc2Cl)ccc1OC(F)F	7.00 to 8.00
CCOC(=O)c1cccc(Oc2cc(C(=O)Nc3c(Cl)cncc3Cl)ccc2OC(F)F)c1	7.00 to 8.00
O=C(Nc1c(Cl)cncc1Cl)c1ccc(OC(F)F)c(OCCCSC2CCOC2=O)c1 (centres unmarked)	> 8.00
COC(=O)Cc1cccc(NCCCOc2cc(C(=O)Nc3c(Cl)cncc3Cl)ccc2OC(F)F)c1	> 8.00
O=C(Nc1c(Cl)cncc1Cl)c1ccc(OC(F)F)c(OCCCCNC(CCO)C(=O)O)c1 (centres unmarked)	6.30 to 7.00
O=C(Nc1c(Cl)cncc1Cl)c1ccc(OC(F)F)c(OCCCCNC2CCOC2=O)c1 (centres unmarked)	> 8.00
COC(=O)CNCCCOc1cc(C(=O)Nc2c(Cl)cncc2Cl)ccc1OC(F)F	7.00 to 8.00
O=C(Nc1c(Cl)cncc1Cl)c1ccc(OC(F)F)c(OCCCSc2ccc(C(=O)OCCO)cc2)c1	7.00 to 8.00
O=C(Nc1c(Cl)cncc1Cl)c1ccc(OC(F)F)c(Oc2cccc(C(=O)OCCO)c2)c1	> 8.00
O=C(CCCCOc1cc(C(=O)Nc2c(Cl)cncc2Cl)ccc1OC(F)F)Oc1ccccc1	7.00 to 8.00
CN(C)CCOC(=O)c1ccc(Oc2cc(C(=O)Nc3c(Cl)cncc3Cl)ccc2OC(F)F)cc1	7.00 to 8.00
O=C(CCCCOc1cc(C(=O)Nc2c(Cl)cncc2Cl)ccc1OC(F)F)OCCN1CCCC1	> 8.00

----------
- assayProtocol: Solubility in aqueous solution (PBS pH 7.4)
- Type: physicochemical
- setupConditions: phosphate buffer saline (PBS), pH 7.4, aqueous buffer, kinetic from dmso stock; PBS pH7.4, 24 h, room temperature, theoretical concentration 200 μM
Item-by-item account of solubility at 24 h
readoutLabel: solubility at 24 h

compound	readoutLabel	assayValue
COC(=O)c1ccc(Oc2cc(C(=O)Nc3c(Cl)cncc3Cl)ccc2OC(F)F)cc1 [Compound 21]	solubility at 24 h	10 to 100 µM
O=C(Nc1c(Cl)cncc1Cl)c1ccc(OC(F)F)c(OCCCSC2CCOC2=O)c1 (stereo not drawn) [Compound 13]	solubility at 24 h	10 to 100 µM
O=C(Nc1c(Cl)cncc1Cl)c1ccc(OC(F)F)c(OCCCCNC2CCOC2=O)c1 (stereo not drawn) [Compound 11]	solubility at 24 h	10 to 100 µM
O=C(Nc1c(Cl)cncc1Cl)c1ccc(OC(F)F)c(OCCCCSC2CCOC2=O)c1 (stereo not drawn) [Compound 12]	solubility at 24 h	10 to 100 µM
COC(=O)Cc1cccc(NCCCOc2cc(C(=O)Nc3c(Cl)cncc3Cl)ccc2OC(F)F)c1 [Compound 16]	solubility at 24 h	< 10 µM
O=C(CCCCOc1cc(C(=O)Nc2c(Cl)cncc2Cl)ccc1OC(F)F)Oc1ccccc1F [Compound 3]	solubility at 24 h	< 10 µM
COC(=O)c1cccc(SCCCOc2cc(C(=O)Nc3c(Cl)cncc3Cl)ccc2OC(F)F)c1 [Compound 17]	solubility at 24 h	< 10 µM
O=C(CCCCOc1cc(C(=O)Nc2c(Cl)cncc2Cl)ccc1OC(F)F)Oc1ccccc1 [Compound 2]	solubility at 24 h	10 to 100 µM
O=C(CCCCOc1cc(C(=O)Nc2c(Cl)cncc2Cl)ccc1OC(F)F)OCCN1CCCC1 [Compound 8]	solubility at 24 h	> 100 µM
O=C(Nc1c(Cl)cncc1Cl)c1ccc(OC(F)F)c(OCC2CC2)c1 [Roflumilast, reference compound]	solubility at 24 h	< 10 µM
O=C(CCCCOc1cc(C(=O)Nc2c(Cl)cncc2Cl)ccc1OC(F)F)OCCN1CCOCC1 [Compound 5]	solubility at 24 h	> 100 µM
COC(=O)CNCCCOc1cc(C(=O)Nc2c(Cl)cncc2Cl)ccc1OC(F)F [Compound 15]	solubility at 24 h	> 100 µM
O=C(Nc1c(Cl)cncc1Cl)c1ccc(OC(F)F)c(OCCCNC2CCOC2=O)c1 (stereo not drawn) [Compound 14]	solubility at 24 h	10 to 100 µM
O=C(CCCCOc1cc(C(=O)Nc2c(Cl)cncc2Cl)ccc1OC(F)F)NCCSC1CCOC1=O (stereo not drawn) [Compound 10]	solubility at 24 h	> 100 µM
CCCOC(=O)CCCCOc1cc(C(=O)Nc2c(Cl)cncc2Cl)ccc1OC(F)F [Compound 1]	solubility at 24 h	10 to 100 µM
COCCOC(=O)CCCCOc1cc(C(=O)Nc2c(Cl)cncc2Cl)ccc1OC(F)F [Compound 7]	solubility at 24 h	> 100 µM
CN(C)CCOC(=O)CCCCOc1cc(C(=O)Nc2c(Cl)cncc2Cl)ccc1OC(F)F [Compound 9]	solubility at 24 h	10 to 100 µM
O=C(CCCCOc1cc(C(=O)Nc2c(Cl)cncc2Cl)ccc1OC(F)F)OCc1ccccc1 [Compound 4]	solubility at 24 h	< 10 µM

----------
- assayProtocol: in vitro
- setupConditions: PAMPA, pH 7.4

compound	unitsLabel	Papp at 5 h, 10 μM
CC(C)NCC(O)COc1cccc2ccccc12 (centres unmarked) [Propranolol]	×10⁻⁶ cm/s	9.5
COC(=O)[C@H]1[C@H]2C[C@@H]3c4[nH]c5cc(OC)ccc5c4CCN3C[C@H]2C[C@@H](OC(=O)c2cc(OC)c(OC)c(OC)c2)[C@@H]1OC [Reserpine]	×10⁻⁶ cm/s	0.008

----------
- targetOfAssay: recombinant PDE4D2 (Homo sapiens, UniProt Q08499)
- Sequence (Q08499 303-809 limits assumed): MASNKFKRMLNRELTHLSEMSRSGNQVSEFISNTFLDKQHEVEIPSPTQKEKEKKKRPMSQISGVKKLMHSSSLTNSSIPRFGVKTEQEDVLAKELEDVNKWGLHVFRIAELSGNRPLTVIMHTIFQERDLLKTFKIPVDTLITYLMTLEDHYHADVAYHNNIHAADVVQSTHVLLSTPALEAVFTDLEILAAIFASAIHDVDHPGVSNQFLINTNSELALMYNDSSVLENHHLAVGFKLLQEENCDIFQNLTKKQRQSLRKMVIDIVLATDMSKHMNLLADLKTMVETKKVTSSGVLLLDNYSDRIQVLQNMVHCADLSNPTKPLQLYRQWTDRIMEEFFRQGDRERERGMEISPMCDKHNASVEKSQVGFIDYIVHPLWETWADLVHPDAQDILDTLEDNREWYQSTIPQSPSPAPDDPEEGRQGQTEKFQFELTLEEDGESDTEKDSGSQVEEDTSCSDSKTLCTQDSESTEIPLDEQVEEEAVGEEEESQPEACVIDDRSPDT
- assayProtocol: PDE4 inhibitory activity screening, PDE4D2 (HTRF, cAMP substrate)
- setupConditions: 40 nM cAMP, 30 minutes, room temperature
pIC50: −log10 of the molar value.

compound	targetOfAssay	pIC50
COC(=O)c1cccc(SCCCOc2cc(C(=O)Nc3c(Cl)cncc3Cl)ccc2OC(F)F)c1	recombinant PDE4D2 (Homo sapiens, UniProt Q08499)	6.30 to 7.00
O=C(Nc1c(Cl)cncc1Cl)c1ccc(OC(F)F)c(OCCCCNC2CCOC2=O)c1 (stereo not shown)	recombinant PDE4D2 (Homo sapiens, UniProt Q08499)	> 8.00
O=C(CCCCOc1cc(C(=O)Nc2c(Cl)cncc2Cl)ccc1OC(F)F)OCC1CCCO1 (stereo not shown)	recombinant PDE4D2 (Homo sapiens, UniProt Q08499)	7.00 to 8.00
CN(C)CCOC(=O)c1ccc(SCCCOc2cc(C(=O)Nc3c(Cl)cncc3Cl)ccc2OC(F)F)cc1	recombinant PDE4D2 (Homo sapiens, UniProt Q08499)	> 8.00
O=C(CCCCOc1cc(C(=O)Nc2c(Cl)cncc2Cl)ccc1OC(F)F)OCc1ccccc1	recombinant PDE4D2 (Homo sapiens, UniProt Q08499)	6.30 to 7.00
O=C(CCCCOc1cc(C(=O)Nc2c(Cl)cncc2Cl)ccc1OC(F)F)OCCN1CCOCC1	recombinant PDE4D2 (Homo sapiens, UniProt Q08499)	> 8.00
O=C(O)CNCCCOc1cc(C(=O)Nc2c(Cl)cncc2Cl)ccc1OC(F)F	recombinant PDE4D2 (Homo sapiens, UniProt Q08499)	< 6.30
